# Test system: Jurkat
# procedureDetails: Viability test on Jurkat cells
# Assay type: cell-based, human
# assaySetup: Homo sapiens, T-cell acute leukemia, nd = no significant cytotoxic activity up to 100 μM
recordedEndpoint: pIC50
The value called pIC50 is obtained by taking minus log10 of the concentration in mol/L.

Query block: Read off the recorded pIC50 for CCOc1ccccc1C(=O)/C=C/c1cc2ccccc2[nH]1 [Compound 15]
Result block: 7.40

---

Documented IC50 across a set of compounds
# Tested on: U-2940
# procedureDetails: Viability test on U-2940 cells, 48 h
# Assay type: cell-based, human
# assaySetup: Homo sapiens, U-2940, 48 h, 48 h incubation; nd = no significant cytotoxic activity up to 100 μM

Example compounds with recorded IC50:
1) CCOc1ccccc1C(=O)/C=C/c1ccc2sccc2c1 [Compound 13] = 9.05 µM
2) CCOc1cccc(C(=O)/C=C/c2ccc3[nH]ccc3c2)c1 [Compound 23] = 10 µM
3) Cc1ccccc1C(=O)/C=C/c1ccc2ccccc2c1 [Compound 6] = 10.3 µM

Query block: Tell me its IC50 on U-2940: CCOc1cccc(C(=O)/C=C/c2csc3ccccc23)c1 [Compound 18]
Result block: 7.59 µM
